targetEntity: human D2 receptor (Homo sapiens, UniProt P14416)
Construct: expressed in transfected cells; cDNA from Origene clones TC308892 and SC123573
Sequence (P14416 whole entry): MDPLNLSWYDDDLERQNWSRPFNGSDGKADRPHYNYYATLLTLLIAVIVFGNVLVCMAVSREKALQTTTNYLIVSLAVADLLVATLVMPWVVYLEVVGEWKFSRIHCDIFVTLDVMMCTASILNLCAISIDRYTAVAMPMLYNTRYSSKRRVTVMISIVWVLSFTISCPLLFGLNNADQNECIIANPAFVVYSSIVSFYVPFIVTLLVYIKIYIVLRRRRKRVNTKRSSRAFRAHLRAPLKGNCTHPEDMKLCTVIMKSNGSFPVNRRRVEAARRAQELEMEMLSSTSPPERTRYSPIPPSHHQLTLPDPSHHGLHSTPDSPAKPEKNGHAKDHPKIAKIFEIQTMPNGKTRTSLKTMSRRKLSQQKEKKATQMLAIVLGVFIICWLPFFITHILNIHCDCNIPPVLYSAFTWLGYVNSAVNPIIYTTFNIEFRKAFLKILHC
assayOverview: D2 receptor radioligand binding assay (membranes of HEK-293 cells expressing human D2 receptor)
pIC50: −log10 of the molar value.
measuredQuantity: pIC50

{"columns": ["compound", "measuredQuantity", "result"],
 "data": [
  ["O=C(O[C@H]1CN2CCC1CC2)c1cccc(CN2CN(c3ccccc3)C3(CCN(CCCn4c(=O)[nH]c5ccccc54)CC3)C2=O)c1 [Compound 26]", "pIC50", "> 8.00"]
]}

----------
targetEntity: human D2 receptor (Homo sapiens)
Construct: expressed in transfected cells; cDNA from Origene clones TC308892 and SC123573
assayOverview: D2 receptor radioligand binding assay (membranes of HEK-293 cells expressing human D2 receptor)
measurementParameters: radioligand displacement, HEK293 membranes, 37° C. for 120 minutes; read-out: Affinity Score (IC50 values for D2 on a scale of 1 through 5)
Counter-ions that a name gives are not always drawn.
Items are presented alongside their recorded IC50.
measuredQuantity: IC50

{"columns": ["molecule", "measuredQuantity", "result"],
 "data": [
  ["O=C(O)c1cccc(CN2CN(c3ccccc3)C3(CCN(CCCn4nnc5ccccc54)CC3)C2=O)c1 [Compound 85]", "IC50", "< 10 nM"],
  ["O=C(O)c1cccc(CN2CN(c3ccccc3)C3(CCN(CCCn4c(=O)sc5ccccc54)CC3)C2=O)c1 [Compound 52]", "IC50", "< 10 nM"],
  ["CC1(F)C(=O)N(CCCN2CCC3(CC2)C(=O)N(Cc2ccccc2C(=O)O)CN3c2ccc(F)cc2)c2ccccc21 (centres unmarked) [Compound 163]", "IC50", "< 10 nM"],
  ["O=C(O)c1cccc(CN2CN(c3ccc(F)cc3)C3(CCN(CCCn4c(=O)n(C5CC5)c5ccccc54)CC3)C2=O)c1 [Compound 156]", "IC50", "< 10 nM"],
  ["O=C(O)c1ccccc1CN1CN(c2ccccc2)C2(CCN(CCCN3C(=O)Cc4ccccc43)CC2)C1=O [Compound 148]", "IC50", "< 10 nM"],
  ["O=C(O)c1cccc(CN2CN(c3ccccc3)C3(CCN(CCCC(O)c4ccccc4)CC3)C2=O)c1 (centres unmarked) [Compound 173]", "IC50", "< 10 nM"],
  ["O=C(O)c1cccc(CN2CN(c3ccc(F)cc3)C3(CCN(CCCN4C(=O)Cc5ccccc54)CC3)C2=O)c1 [Compound 145]", "IC50", "< 10 nM"],
  ["COC(=O)c1cccc(CN2CN(c3ccccc3)C3(CCN(CCCc4c[nH]c5ccccc45)CC3)C2=O)c1 [Compound 57]", "IC50", "< 10 nM"],
  ["O=C(O)c1cccc(CN2CN(c3ccccc3)C3(CCN(CCCN4C(=O)COc5ccccc54)CC3)C2=O)c1 [Compound 71]", "IC50", "< 10 nM"],
  ["O=C(O)[C@@H](c1ccccc1)N1CN(c2ccccc2)C2(CCN(CCCN3C(=O)Cc4ccccc43)CC2)C1=O [Compound 166]", "IC50", "< 10 nM"],
  ["O=C(O)c1ccccc1CN1CN(c2ccccc2)C2(CCN(CCCn3c(=O)n(C4CC4)c4ccccc43)CC2)C1=O [Compound 155]", "IC50", "< 10 nM"],
  ["COC(=O)[C@@H](c1ccccc1)N1CN(c2ccccc2)C2(CCN(CCCn3c(=O)[nH]c4ccccc43)CC2)C1=O [Compound 34]", "IC50", "< 10 nM"],
  ["O=C(O)c1ccccc1CN1CN(c2ccc(F)cc2)C2(CCN(CCCN3C(=O)C4(CC4)c4ccccc43)CC2)C1=O [Compound 161]", "IC50", "< 10 nM"],
  ["CS(=O)(=O)Nc1ccc(CN2CN(c3ccccc3)C3(CCN(CCCC(=O)c4ccccc4)CC3)C2=O)cc1 [Compound 186]", "IC50", "< 10 nM"],
  ["O=C(O)c1cccc(CN2CN(c3ccccc3)C3(CCN(CCCC(=O)c4cccs4)CC3)C2=O)c1 [Compound 143, hydrochloride]", "IC50", "< 10 nM"],
  ["CC1(F)C(=O)N(CCCN2CCC3(CC2)C(=O)N(Cc2ccccc2C(=O)O)CN3c2ccccc2)c2ccccc21 (centres unmarked) [Compound 162]", "IC50", "< 10 nM"],
  ["CC1(C)C(=O)N(CCCN2CCC3(CC2)C(=O)N(Cc2ccc(C(=O)O)cc2)CN3c2ccccc2)c2ccccc21 [Compound 171, hydrochloride]", "IC50", "< 10 nM"]
]}

Data origin, for the record: patent US9156840B2
